- System: U251 CNS cancer cells
- STUDY_CONDITIONS: human, u251 cns cancer cells
READOUT_NAME: CC50

Query: CC50; subject: CCCC(=O)NC1CCc2cc(OC)c(OC)c(OC)c2-c2ccc(C(C)=O)cc21 (stereo not shown)
> 100 µM

---

- System: SNB-75 CNS cancer cells
- STUDY_CONDITIONS: human, snb-75 cns cancer cells
READOUT_NAME: CC50

Param item = CCCC(=O)NC1CCc2cc(OC)c(OC)c(OC)c2-c2ccc(C(C)=O)cc21 (stereo not shown) ; retrieve measured CC50.
> 100 µM

---

- Tested on: A498 renal cancer cells
- STUDY_CONDITIONS: human, a498 renal cancer cells
READOUT_NAME: CC50

Give the measured CC50 of CCCC(=O)NC1CCc2cc(OC)c(OC)c(OC)c2-c2ccc(C(C)=O)cc21 (stereo not shown) .
> 100 µM
